Observed Ki values for Sigma-2 receptor (S2R) (Homo sapiens, UniProt Q5BJF2) are listed in what follows.

compound	Ki
CCCN1CCC(O)(c2cccc(S(C)(=O)=O)c2)CC1 [Compound 1]	> 100 µM
CCCN1CC[C@@H](c2cccc(S(C)(=O)=O)c2)[C@@H](O)C1 [Compound 4]	> 100 µM
